B1: LRRK2 RocCOR tandem domain (LexA-BD bait, wild type) [human] / itself (parent complex)
chain: KAVPYNRMKLMIVGNTGSGKTTLLQQLMKTKKSDLGMQSATVGIDVKDWPIQIRDKRKRDLVLNVWDFAGREEFYSTHPHFMTQRALYLAVYDLSKGQAEVDAMKPWLFNIKARASSSPVILVGTHLDVSDEKQRKACMSKITKELLNKRGFPAIRDYHFVNATEESDALAKLRKTIINESLNFKIRDQLVVGQLIPDCYVELEKIILSERKNVPIEFPVIDRKRLLQLVRENQLQLDENELPHAVHFLNESGVLLHFQDPALQLSDLYFVEPKWLCKIMAQILTVKVEGCPKHPKGIISRRDVEKFLSKKRKFPKNYMSQYFKLLEKFQIALPIGEEYLLVPSSLSDHRPVIELPHCENSEIIIRLYEMPYFPMGFWSRLINRLLEISPYMLSGRERALRPNRMYWRQGIYL

Variants of: B1
procedure_details: quantitative yeast two-hybrid (Q-YTH); n = 6; read off a plot
recorded_endpoint: percent of parent

Need percent of parent, item chain 1 T164D ~98%

And then chain 1 T16A , what is it? ~93%

And then chain 1 T164A , what is it? ~110%

And then chain 1 T16D , what is it? ~97%
